- PROTOCOL DETAILS: reducers of endogenous Her2 protein level, primary screen, SKBR3 breast tumor cells, AlphaScreen, ATP viability (AID 461);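 further: percent of carrier control wells set as 100% viability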
- CONDITION INFO: 18-24 h, measured here: SKBR3 viability, ATP luminescence, at 10 µM
PROPERTY LABEL: viability (%)

Cn1c(=O)c2c(nc(NCCCO)n2C/C=C/c2ccccc2)n(C)c1=O    73.5
CC(=O)c1ccc(Oc2cc(C)nc(-n3nc(C)cc3C)n2)cc1    107
C=CCOc1nc(N(C)C)nc(N(C)C)n1    92.5
CCCC1(C(=O)OCC)NC(c2ccc(N(C)C)cc2)C2C(=O)N(c3ccccc3)C(=O)C21 (stereo unspecified)    109
Cc1ccc(-n2nnnc2SCC(=O)N2CCN(C(=O)c3ccco3)CC2)c(C)c1    119
CCOC(=O)c1ccc(NC(=O)CSCc2ccco2)cc1    108
CCOc1nc(-c2ccccc2)ccc1-c1noc(-c2cccnc2)n1    76.5
CCOC(=O)c1ccccc1NC(=O)c1cc2sccc2n1C    90
OC(COc1ccc2ccccc2c1)CN1CCOCC1 (stereo unspecified)    98.5
CCC1C(=O)N=C(SCC(=O)Nc2cccc3ccccc23)NC1=O (stereo unspecified)    112
O=C1CC(Cc2ccccc2)C(=O)N1CCCn1ccnc1 (stereo unspecified)    101
